# TEST DESCRIPTION: Oral taurine pharmacokinetics in rats
# Assay type: in vivo, male Sprague-Dawley rats
# RECORDED CONDITIONS: male, Sprague-Dawley, rat, plasma; oral 100 mg/kg; read-out: k e (converted)
ASSAY ENDPOINT: k el (s⁻¹)
Reply with just the number (in s⁻¹).

Exercise: Query: k el; subject: NCCS(=O)(=O)O
Solution: 0.000167

* * *

# TEST DESCRIPTION: Oral taurine pharmacokinetics in rats
# Assay type: in vivo, male Sprague-Dawley rats
# RECORDED CONDITIONS: male, Sprague-Dawley, rat, plasma; oral 30 mg/kg; read-out: k e (converted)
# Description: The pH was adjusted with NaOH or HCl to 7.40 ± 0.05. The animals were acclimatized for a minimum of 5 days in groups of two and maintained on standard feed with free access to water. […] Plasma was harvested immediately by 10 min of centrifugation at 4°C, 3600g (Multifuge 1 S‐R, Heraeus, Hanau, Germany) and stored in polypropylene tubes (Pony Vial, PerkinElmer, Waltham, MA, USA) at −20°C until analysed. […] The samples were counted for 3 min on a scintillation counter from Tri‐Carb 2900TR. […]
ASSAY ENDPOINT: k el
Put your answer as a value accompanied by its unit after it.

Exercise: Query: k el; subject: NCCS(=O)(=O)O [Taurine, 2‐aminoethane sulfonic acid]
Solution: 0.000117 s⁻¹

* * *

# TEST DESCRIPTION: Intravenous taurine pharmacokinetics in rats
# Type: in vivo, male Sprague-Dawley rats
# RECORDED CONDITIONS: male, Sprague-Dawley, rat, plasma; IV 1 mg/kg
ASSAY ENDPOINT: AUC(0-inf) (ng·h/mL)
Reply with just the number (in ng·h/mL).

Exercise: Query: AUC(0-inf); subject: NCCS(=O)(=O)O [Taurine, 2‐aminoethane sulfonic acid]
Solution: 1480

* * *

# TEST DESCRIPTION: Intravenous taurine pharmacokinetics in rats
# Type: in vivo, male Sprague-Dawley rats
# RECORDED CONDITIONS: male, Sprague-Dawley, rat, plasma, iv, 1 mg/kg, IV 1 mg/kg; read-out: CL
ASSAY ENDPOINT: clearance (L/h/kg)
Reply with just the number (in L/h/kg).

Exercise: Query: clearance; subject: NCCS(=O)(=O)O
Solution: 0.702

* * *

# STUDY SYSTEM: TauT (Homo sapiens)
# Sequence (P31641 1-620): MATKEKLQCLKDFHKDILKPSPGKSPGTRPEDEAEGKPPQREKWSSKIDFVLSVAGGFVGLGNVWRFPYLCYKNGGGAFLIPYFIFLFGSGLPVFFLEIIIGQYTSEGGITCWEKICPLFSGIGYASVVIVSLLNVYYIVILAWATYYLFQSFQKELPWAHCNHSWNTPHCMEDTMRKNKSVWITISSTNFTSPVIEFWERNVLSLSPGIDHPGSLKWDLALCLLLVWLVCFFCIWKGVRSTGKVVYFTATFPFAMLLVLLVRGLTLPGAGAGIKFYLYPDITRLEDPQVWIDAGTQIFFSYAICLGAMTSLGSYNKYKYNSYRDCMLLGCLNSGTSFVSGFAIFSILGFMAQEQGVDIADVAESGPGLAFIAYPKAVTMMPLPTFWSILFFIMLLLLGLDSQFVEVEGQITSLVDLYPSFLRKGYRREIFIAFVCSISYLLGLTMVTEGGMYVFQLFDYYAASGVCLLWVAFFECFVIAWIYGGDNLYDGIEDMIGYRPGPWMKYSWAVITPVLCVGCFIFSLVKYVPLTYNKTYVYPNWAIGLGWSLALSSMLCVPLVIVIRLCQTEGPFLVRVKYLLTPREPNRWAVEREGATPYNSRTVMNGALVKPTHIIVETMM
# TEST DESCRIPTION: Taurine (52 nmol/L) uptake in Caco-2 cells at pH 7.4 in the presence of amino acids
# Assay type: cell-based
# Design: endogenous in cells; host or cells: Caco-2
# RECORDED CONDITIONS: pH 7.4, 0.052 μmol/L taurine, 10 mmol/L test substance

COMPOUND	STUDY SYSTEM	effect on taurine uptake
O=C(O)[C@@H]1CCCN1	TauT (Homo sapiens)	not affected
CNCC(=O)O	TauT (Homo sapiens)	not affected
NC1(C(=O)O)CC2CCC1C2 (stereo not shown)	TauT (Homo sapiens)	not affected

* * *

# TEST DESCRIPTION: Intravenous taurine pharmacokinetics in rats
# Assay type: in vivo, male Sprague-Dawley rats
# RECORDED CONDITIONS: male, Sprague-Dawley, rat, plasma; IV 30 mg/kg
ASSAY ENDPOINT: AUC(0-inf) (ng·h/mL)
Reply with just the number (in ng·h/mL).

Exercise: Query: AUC(0-inf); subject: NCCS(=O)(=O)O [Taurine, 2‐aminoethane sulfonic acid]
Solution: 57500

* * *

# TEST DESCRIPTION: Oral taurine pharmacokinetics in rats
# Type: in vivo, male Sprague-Dawley rats
# RECORDED CONDITIONS: male, Sprague-Dawley, rat, plasma; oral 299 mg/kg
# Description: The pH was adjusted with NaOH or HCl to 7.40 ± 0.05. The animals were acclimatized for a minimum of 5 days in groups of two and maintained on standard feed with free access to water. […] Plasma was harvested immediately by 10 min of centrifugation at 4°C, 3600g (Multifuge 1 S‐R, Heraeus, Hanau, Germany) and stored in polypropylene tubes (Pony Vial, PerkinElmer, Waltham, MA, USA) at −20°C until analysed. […] The samples were counted for 3 min on a scintillation counter from Tri‐Carb 2900TR. […]
ASSAY ENDPOINT: Cmax

Exercise: Query: Cmax; subject: NCCS(=O)(=O)O [Taurine, 2‐aminoethane sulfonic acid]
Solution: 228 µg/mL

* * *

# TEST DESCRIPTION: Oral taurine pharmacokinetics in rats
# Format: in vivo, male Sprague-Dawley rats
# RECORDED CONDITIONS: male, Sprague-Dawley, rat, plasma; oral 997 mg/kg, median [Q1; Q3]
ASSAY ENDPOINT: Tmax (min)
Reply with just the number (in min).

Exercise: Query: Tmax; subject: NCCS(=O)(=O)O
Solution: 45

* * *

# TEST DESCRIPTION: Oral taurine pharmacokinetics in rats
# Type: in vivo, male Sprague-Dawley rats
# RECORDED CONDITIONS: male, Sprague-Dawley, rat, plasma; oral 100 mg/kg
ASSAY ENDPOINT: Cmax (µg/mL)
Reply with just the number (in µg/mL).

Exercise: Query: Cmax; subject: NCCS(=O)(=O)O
Solution: 70

* * *

# TEST DESCRIPTION: Intravenous taurine pharmacokinetics in rats
# Assay type: in vivo, male Sprague-Dawley rats
# RECORDED CONDITIONS: male, Sprague-Dawley, rat, plasma; IV 10 mg/kg
ASSAY ENDPOINT: AUC(0-inf)

Exercise: Query: AUC(0-inf); subject: NCCS(=O)(=O)O
Solution: 9780 ng·h/mL

* * *

# TEST DESCRIPTION: Intravenous taurine pharmacokinetics in rats
# Type: in vivo, male Sprague-Dawley rats
# RECORDED CONDITIONS: male, Sprague-Dawley, rat, plasma, iv, IV 1–30 mg/kg, compartmental analysis; read-out: clearance
ASSAY ENDPOINT: clearance

Exercise: Query: clearance; subject: NCCS(=O)(=O)O [Taurine, 2‐aminoethane sulfonic acid]
Solution: 9 to 18 mL/min/kg

* * *

# TEST DESCRIPTION: Oral taurine pharmacokinetics in rats
# Type: in vivo, male Sprague-Dawley rats
# RECORDED CONDITIONS: male, Sprague-Dawley, rat, plasma; oral 100 mg/kg; read-out: AUC0‐tlast (converted)
ASSAY ENDPOINT: AUC (ng·h/mL)
Reply with just the number (in ng·h/mL).

Exercise: Query: AUC; subject: NCCS(=O)(=O)O [Taurine, 2‐aminoethane sulfonic acid]
Solution: 89900

* * *

# TEST DESCRIPTION: Intravenous taurine pharmacokinetics in rats
# Format: in vivo, male Sprague-Dawley rats
# RECORDED CONDITIONS: male, Sprague-Dawley, rat, plasma, iv, 10 mg/kg, IV 10 mg/kg; read-out: CL
ASSAY ENDPOINT: clearance
Put your answer as a value accompanied by its unit after it.

Exercise: Query: clearance; subject: NCCS(=O)(=O)O [Taurine, 2‐aminoethane sulfonic acid]
Solution: 18.7 mL/min/kg

* * *

# TEST DESCRIPTION: Oral taurine pharmacokinetics in rats
# Type: in vivo, male Sprague-Dawley rats
# RECORDED CONDITIONS: male, Sprague-Dawley, rat, plasma; oral 299 mg/kg; read-out: AUC0‐tlast (converted)
ASSAY ENDPOINT: AUC (µg·h/mL)
Reply with just the number (in µg·h/mL).

Exercise: Query: AUC; subject: NCCS(=O)(=O)O [Taurine, 2‐aminoethane sulfonic acid]
Solution: 307

* * *

# TEST DESCRIPTION: Oral taurine pharmacokinetics in rats
# Format: in vivo, male Sprague-Dawley rats
# RECORDED CONDITIONS: male, Sprague-Dawley, rat, plasma; oral 997 mg/kg; read-out: AUC0‐tlast (converted)
ASSAY ENDPOINT: AUC (µg·h/mL)
Reply with just the number (in µg·h/mL).

Exercise: Query: AUC; subject: NCCS(=O)(=O)O
Solution: 1320
